src = patent US20200079833A1

TARGET OR TEST SYSTEM: GLP-1 receptor (GLP-1R) (human, UniProt P43220 24-463)
PROTOCOL DESCRIPTION: cell-based or functional assay
Starred links: 1 amine or outer side, 2 acyl side, 3 side chain; linkers in the order of their positions; H or OH if unused. Non-standard residues stand in square brackets, D forms with d. Groups on a side chain read outwards from the residue. Primed or numbered codes have the meaning given here. No end group written: not given here. *: point of attachment. γGlu = O=C(O)[C@H](CCC(=O)[*:2])N[*:1]; Stearoyl = CCCCCCCCCCCCCCCCCC(=O)*; αMeF = C[C@](N)(Cc1ccccc1)C(=O)O; αMeK = C[C@](N)(CCCCN)C(=O)O; αMeS = C[C@](N)(CO)C(=O)O; PEG2′ = not defined here; Aib = CC(C)(N)C(=O)O
TEST READOUT: cAMP Mean pM GLP-1R (pM)

BINDER: H[Aib]EGS[αMeF]TSDV[αMeS]S[αMeF]LEK([PEG2′-PEG2′-γGlu-Stearoyl])EAA[αMeK]E[αMeF]IA[αMeF]VV[αMeK]GG-NH2 [SEQ ID NO 113]
TEST READOUT: cAMP Mean pM GLP-1R
RECORDED RESULT: 18

BINDER: H[Aib]EGS[αMeF]TSDK([PEG2′-PEG2′-γGlu-Stearoyl])[αMeS]S[αMeF]LEGEAA[αMeK]E[αMeF]IA[αMeF]VV[αMeK]GG-NH2 [SEQ ID NO 119]
TEST READOUT: cAMP Mean pM GLP-1R
RECORDED RESULT: 17
